Provide the recorded Ki for the entries that follow.
biological target: Substance-P receptor (Homo sapiens, UniProt P25103); assay: Binding affinity against recombinant human tachykinin receptor 1 in CHO cells using [3H]-Sar SP as a radioligand
Sequence (P25103 whole entry): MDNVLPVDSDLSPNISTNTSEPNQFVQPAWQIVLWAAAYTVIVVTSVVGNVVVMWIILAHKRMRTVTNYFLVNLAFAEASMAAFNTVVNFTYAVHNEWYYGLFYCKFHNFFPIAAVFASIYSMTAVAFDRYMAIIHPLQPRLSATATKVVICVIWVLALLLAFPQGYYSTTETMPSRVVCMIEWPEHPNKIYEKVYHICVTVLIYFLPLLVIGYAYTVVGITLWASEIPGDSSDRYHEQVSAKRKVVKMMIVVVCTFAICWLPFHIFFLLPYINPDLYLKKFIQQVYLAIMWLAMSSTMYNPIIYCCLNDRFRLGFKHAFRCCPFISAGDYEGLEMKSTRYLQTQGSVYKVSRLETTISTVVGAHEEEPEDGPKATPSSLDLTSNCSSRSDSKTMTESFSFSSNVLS
Write the value in nM as a bare number.

Q. Ki for N=C(CO/N=C(\COCc1cc(C(F)(F)F)cc(C(F)(F)F)c1)C(CCN1CCC(O)(c2ccccc2)CC1)c1ccc(Cl)c(Cl)c1)NO (centres undefined) ?
A. 17

Q. So what does the record say about Ki for CN(C/C(=N\OCC(=N)NO)C(CCN1CCC(N2CCCCC2=O)CC1)c1ccc(Cl)c(Cl)c1)C(=O)c1cc(Cl)cc(Cl)c1 (centres undefined) ?
A. 0.7

Q. Tell me the measured Ki of CN(C/C(=N\OCC(N)=O)C(CCN1CCC(N2CCCCC2=O)CC1)c1ccc(Cl)c(Cl)c1)C(=O)c1cc(Cl)cc(Cl)c1 (centres undefined) , please.
A. 0.9

Q. Entry CN(C/C(=N\OCCCS(C)(=O)=O)C(CCN1CCC(N2CCCCC2=O)CC1)c1ccc(Cl)c(Cl)c1)C(=O)c1cc(Cl)cc(Cl)c1 (centres undefined) has what Ki?
A. 0.9

###

target: Substance-K receptor (Homo sapiens) (UniProt P21452); experiment: Binding affinity against recombinant human tachykinin receptor 2 in CHO cells using [3H]NKA as a radioligand; assay type: cell-based; parameters: concentration or dose not given beside the values; settings: concentration not given here
Sequence (P21452 whole entry): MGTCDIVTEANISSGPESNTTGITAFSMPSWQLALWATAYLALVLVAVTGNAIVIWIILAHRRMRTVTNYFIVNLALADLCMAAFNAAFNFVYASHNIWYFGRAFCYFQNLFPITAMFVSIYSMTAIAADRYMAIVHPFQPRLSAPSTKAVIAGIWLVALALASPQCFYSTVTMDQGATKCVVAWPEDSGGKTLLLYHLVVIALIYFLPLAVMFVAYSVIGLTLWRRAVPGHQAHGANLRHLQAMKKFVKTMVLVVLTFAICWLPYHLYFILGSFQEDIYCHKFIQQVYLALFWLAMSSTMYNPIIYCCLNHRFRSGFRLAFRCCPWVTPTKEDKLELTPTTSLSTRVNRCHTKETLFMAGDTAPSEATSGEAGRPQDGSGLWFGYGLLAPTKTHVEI
Kindly state inhibition for each of the entries shown.
Kindly provide the numeric value in % only, without the unit symbol.

Q. Give the measured inhibition of CO/C=C(\COCc1cc(C(F)(F)F)cc(C(F)(F)F)c1)C(CCN1CCC(O)(c2ccccc2)CC1)c1ccc(Cl)c(Cl)c1 (configuration not stated) .
A. 35

Q. Consider the molecule shown here: CC(C)CO/N=C(\COCc1cc(C(F)(F)F)cc(C(F)(F)F)c1)C(CCN1CCC(O)(c2ccccc2)CC1)c1ccc(Cl)c(Cl)c1 (configuration not stated) What is its recorded inhibition?
A. 11

Q. Fill in the blank: the reported inhibition of CC(C)(C)O/N=C(\COCc1cc(C(F)(F)F)cc(C(F)(F)F)c1)C(CCN1CCC(O)(c2ccccc2)CC1)c1ccc(Cl)c(Cl)c1 (configuration not stated) is ____.
A. 28

Q. Reported inhibition, molecule O=C(O)CO/N=C(\COCc1cc(C(F)(F)F)cc(C(F)(F)F)c1)C(CCN1CCC(O)(c2ccccc2)CC1)c1ccc(Cl)c(Cl)c1 (configuration not stated) : ____
A. 20

Q. Entry OC1(c2ccccc2)CCN(CCC(/C(COCc2cc(C(F)(F)F)cc(C(F)(F)F)c2)=N/Oc2ccccc2)c2ccc(Cl)c(Cl)c2)CC1 (configuration not stated) has what inhibition?
A. 23

Q. What does the data say about its inhibition? Entry: CN(C)CCO/N=C(\COCc1cc(C(F)(F)F)cc(C(F)(F)F)c1)C(CCN1CCC(O)(c2ccccc2)CC1)c1ccc(Cl)c(Cl)c1 (configuration not stated)
A. 11

Q. Name the recorded inhibition for CC/C=C(\COCc1cc(C(F)(F)F)cc(C(F)(F)F)c1)C(CCN1CCC(O)(c2ccccc2)CC1)c1ccc(Cl)c(Cl)c1 (configuration not stated) .
A. 28

###

target: Substance-P receptor (Homo sapiens, UniProt P25103); assay: Binding affinity against recombinant human tachykinin receptor 1 in CHO cells using [3H]-Sar SP as a radioligand
Metric Name: pKi
Lab note — pKi values are minus log10 of concentrations in M.

Q. Need pKi, item CN(C/C(=N\OCCCn1ccnc1)C(CCN1CCC(N2CCCCC2=O)CC1)c1ccc(Cl)c(Cl)c1)C(=O)c1cc(Cl)cc(Cl)c1 (configuration not stated)
A. 8.80

Q. What pKi value was documented for this compound, COCCNC(=O)CO/N=C(\CN(C)C(=O)c1cc(Cl)cc(Cl)c1)C(CCN1CCC(N2CCCCC2=O)CC1)c1ccc(Cl)c(Cl)c1 (configuration not stated) ?
A. 8.66

Q. Consider the compound shown here: CN(C/C(=N\OCCC[S+](C)[O-])C(CCN1CCC(N2CCCCC2=O)CC1)c1ccc(Cl)c(Cl)c1)C(=O)c1cc(Cl)cc(Cl)c1 (configuration not stated) What is its recorded pKi?
A. 9.10

Q. Entry CN(C/C(=N\OC(F)F)C(CCN1CCC(N2CCCCC2=O)CC1)c1ccc(Cl)c(Cl)c1)C(=O)c1cc(Cl)cc(Cl)c1 (configuration not stated) has what pKi?
A. 8.77

Q. For the compound shown here, CN(C)CCO/N=C(\COCc1cc(C(F)(F)F)cc(C(F)(F)F)c1)C(CCN1CCC(O)(c2ccccc2)CC1)c1ccc(Cl)c(Cl)c1 (configuration not stated) , give the reported pKi.
A. 6.99

Q. Suppose we examine the compound CN(C/C(=N\OCCCn1cncn1)C(CCN1CCC(N2CCCCC2=O)CC1)c1ccc(Cl)c(Cl)c1)C(=O)c1cc(Cl)cc(Cl)c1 (configuration not stated) ; what pKi value has been reported?
A. 9.15

Q. Given the compound CN(C/C(=N\OCCn1ccnc1)C(CCN1CCC(N2CCCCC2=O)CC1)c1ccc(Cl)c(Cl)c1)C(=O)c1cc(Cl)cc(Cl)c1 (configuration not stated) , what is its reported pKi?
A. 8.55
